Assay: Solubility of Compound A fumarate at 25° C.
Format: physicochemical
Details: hydrochloric acid buffer pH 2, simulated gastric fluid, thermodynamic from solid; 25° C.; pH 2 buffer (hydrochloric acid)
Where a name gives a salt, the structure may show the parent alone.
Recorded metric: solubility at 24 h

Reported solubility at 24 h of FC(F)OC1=CC(C(F)(F)F)=CN2C[C@@]3(CCC(F)(F)c4c3ccnc4Cl)N=C12 [Compound A fumarate] : > 2000 µg/mL

###

Assay: Solubility of Compound A fumarate at 25° C.
Type: physicochemical
Conditions: thermodynamic from solid; 25° C.; pH 5.8 (FeSSIF), fed state simulating intestinal fluid
Structures can show the parent of a compound that is named as a salt.
Recorded metric: solubility at 24 h

Reported solubility at 24 h of FC(F)OC1=CC(C(F)(F)F)=CN2C[C@@]3(CCC(F)(F)c4c3ccnc4Cl)N=C12 [Compound A fumarate] : 210 µg/mL

###

Test: Solubility of Compound A fumarate at 25° C.
Type: physicochemical
Conditions: 25 °C, aqueous buffer, thermodynamic from solid; pH 1.2 to pH 4.7
Structures can show the parent of a compound that is named as a salt.
Recorded metric: solubility at 24 h

Reported solubility at 24 h of FC(F)OC1=CC(C(F)(F)F)=CN2C[C@@]3(CCC(F)(F)c4c3ccnc4Cl)N=C12 [Compound A fumarate] : ≥ 2000 µg/mL

###

Assay: Solubility of Compound A fumarate at 25° C.
Format: physicochemical
Details: organic solvent or mixture, thermodynamic from solid; 25° C.; Ethanol
Structures can show the parent of a compound that is named as a salt.
Recorded metric: solubility at 24 h

Reported solubility at 24 h of FC(F)OC1=CC(C(F)(F)F)=CN2C[C@@]3(CCC(F)(F)c4c3ccnc4Cl)N=C12 [Compound A fumarate] : > 100 mg/mL
